Assay: rat PK model of intravenous administration
Type: in vivo
Conditions: in vivo, intravenous, dose not given, Example 1 vs Example 10, read-out: AUC
measured.property: AUC

Cl.NCC1OB(O)c2c(OCCCO)cccc21 (centres unmarked) [Reference Example 10, reference compound]	~5370 ng·h/mL

Now examine the next entry.
Asked: What does the data say about its AUC? Entry: Cl.NCC1OB2O[C@H](CO)COc3cccc1c32 (some centres unmarked)
Given back: ~11500 ng·h/mL
